tested on: UACC-257 melanoma; assay: NCI tumour cell line growth inhibition, 48 h
READOUT_KIND: GI50

Below: 4 molecules and their reported GI50.
MOLECULE	GI50
COc1ccc(OC)c(/C=C2\SC(=S)NC2=O)c1	19.8 µM
Nc1ccccc1C#C/C=C\C#Cc1cccs1	23.2 µM
Nc1nc2c(c3ncncc13)C(c1cccc(C(F)(F)F)c1)Cc1ncncc1-2 (stereo not given)	9.56 µM
COC(C(=O)[O][Ge]([CH3])([CH3])[CH3])c1ccccc1 (stereo not given)	> 100 µM

Req: Data request, read-out GI50, for COc1ccc(-c2c3c(N)nc(-c4ccncc4)nc3nc3c2c(C)nn3-c2ccccc2)cc1
Resp: 79.9 µM

Req: Also check COc1ccc2sc3c(NCCCN(C)C)nc4ccccc4c3c(=O)c2c1
Resp: 1.81 µM

Req: Also check O=C(NCCO)Nc1ccc(-c2nc(N3CCOCC3)c3cccn3n2)cc1
Resp: 0.149 µM

Req: Also check CC#C[C@]1(O)CC[C@H]2[C@@H]3CCC4=CC(=O)CCC4=C3[C@@H](c3ccc4c(c3)OCO4)C[C@@]21C
Resp: 119 µM

Req: Also check Cn1cccc1-c1cc(-c2cccs2)nc(N)c1C#N
Resp: > 100 µM

Req: Also check COc1cc(C2CC(c3ccc4c(c3)OCO4)=NN2C=O)cc(OC)c1OC (stereo not given)
Resp: > 20.3 µM
